Each entry below carries its recorded TGI.
# System: M14 melanoma
# assay details: NCI tumour cell line growth inhibition, 48 h

# example entries with known answers
compound: CC(C)(C)C[C@H]1NC(C(=O)NCC[C@H](O)CO)[C@H](c2cccc(Cl)c2)[C@@]12C(=O)Nc1cc(Cl)c(F)cc12 (some centres not stated)
test result: 33.7 µM
//
compound: O=C(NC(Cc1c[nH]c2ccccc12)C(=O)O)/C(=C/c1ccccc1O)NC(=O)c1ccccc1 (configuration not stated)
test result: > 100 µM
//
compound: COc1cc2c(cc1OCCCCOc1cc(-c3ccc(F)cc3)nc(C)n1)N=C[C@@H]1CCCN1C2=O
test result: 1.87 µM
//
compound: C=C1C(=O)O[C@H]2[C@H]1[C@H](OC(=O)/C(C)=C\C)CC(=C)[C@@H]1[C@H](O)[C@H]3O[C@@]3(C)[C@@]12O
test result: > 100 µM
//
compound: O=c1c2ncn(C3CC(O)C(CO)O3)c2nnn1Cc1ccccc1[N+](=O)[O-] (configuration not stated)
test result: > 100 µM
//
compound: COc1ccc(/C(=N/O)c2ccccc2-c2nc3ccccc3c(=O)n2-c2ccc(S(=O)(=O)Nc3ncccn3)cc2)cc1C
test result: > 31.6 µM
//
compound: COc1ccc(C(=O)/C=C/c2ccc(/C=C/c3cc(OC)c(OC)c(OC)c3)cc2)cc1
test result: > 100 µM
//
compound: CC1(C)C(c2ccccc2)=[N+]([O-])C(C)(C)N1O
test result: > 10 µM

The reported M14 melanoma TGI of "O=C(CN1CCCCC1)CC(O)(C(F)(F)F)C(F)(F)F" is > 100 µM

With M14 melanoma as the test system, "Cc1cc(N(CCC#N)S(=O)(=O)c2ccccc2)ccc1/C=C1N=C(/C=C/c2ccccc2)OC\1=O" showed TGI of > 100 µM

Value source: PubChem BioAssay (NCI)
